Test system: Anopheles stephensi
assay summary: Anopheles stephensi treated well plate contact test: knockdown and mortality
Type: in vivo
test parameters: test compound 2 ppm, without TFNA-AM, after 24 hours
Readings of mortality % 24, without TFNA-AM for the listed compounds
A number alone suffices; assume %.

O=c1c(-c2cccc(C(F)(F)F)c2)c([O-])[n+](Cc2cncnc2)c2ccccn12	0
O=C1C=C(N(Cc2ccc(Cl)nc2)CC(F)F)CO1	0
CO/C=C(/C(=O)OC)c1ccccc1COc1cccc(C(F)(F)F)n1	50
CC(C)=C[C@@H]1[C@@H](C(=O)O[C@H](C#N)c2cccc(Oc3ccccc3)c2)C1(C)C (relative stereo) [d-d, trans cyphenothrin]	0
N#Cc1ccc(CC(=NNC(=O)Nc2ccc(OC(F)(F)F)cc2)c2cccc(C(F)(F)F)c2)cc1 (mixture of isomers)	0

Query compound follows.
In: Identify the measured mortality % 24, without TFNA-AM of CN(C(=O)c1ccccc1)c1cccc(C(=O)Nc2c(Br)cc(C(F)(C(F)(F)F)C(F)(F)F)cc2C(F)(F)F)c1F [Broflanilide] for Anopheles stephensi.
Out: 100
